System: HCT-15 colon
Experiment: NCI tumour cell line growth inhibition, 48 h
reported-endpoint: log10(TGI) (log10 of the value in µM)

>  <compound>
CCCc1cc(=O)oc2c3c(c4c(c12)OC(C)(C)C=C4)O[C@@H](C)[C@H](C)C3=O

>  <log10(TGI)>
1.66

$$$$
>  <compound>
Cc1cccc2c1Oc1cc(Cl)ccc1C2NC(=O)CCN1CCN(CCO)CC1 (stereo not given)

>  <log10(TGI)>
1.53

$$$$
>  <compound>
O=C1C(Br)=CC2(C=C1Br)CCN=c1c2c(O)c2nc3ccccc3c3ccnc1c23

>  <log10(TGI)>
0.20

$$$$
>  <compound>
CCCc1c(OC)c(=O)c2c(OC)cc(OC)c3c4c(OC)cc(OC)c5c(=O)c(OC)c(CCC)c(c1c23)c54

>  <log10(TGI)>
1.45

$$$$
>  <compound>
CCCCCCCC/C=C/CCCCCCCCC1=NCCN1CCO

>  <log10(TGI)>
0.88

$$$$
